target: EHMT2 (Homo sapiens, UniProt Q96KQ7); construct: host or cells: MDA-MB-231; test: MDA-MB-231 H3K9me2 in-cell Western assay (EHMT2 ICW); format: cell-based; settings: Table III; MDA-MB-231 H3K9me2 in-cell Western; read-out: EHMT2 ICW (IC50 μM)
Sequence (Q96KQ7 whole entry): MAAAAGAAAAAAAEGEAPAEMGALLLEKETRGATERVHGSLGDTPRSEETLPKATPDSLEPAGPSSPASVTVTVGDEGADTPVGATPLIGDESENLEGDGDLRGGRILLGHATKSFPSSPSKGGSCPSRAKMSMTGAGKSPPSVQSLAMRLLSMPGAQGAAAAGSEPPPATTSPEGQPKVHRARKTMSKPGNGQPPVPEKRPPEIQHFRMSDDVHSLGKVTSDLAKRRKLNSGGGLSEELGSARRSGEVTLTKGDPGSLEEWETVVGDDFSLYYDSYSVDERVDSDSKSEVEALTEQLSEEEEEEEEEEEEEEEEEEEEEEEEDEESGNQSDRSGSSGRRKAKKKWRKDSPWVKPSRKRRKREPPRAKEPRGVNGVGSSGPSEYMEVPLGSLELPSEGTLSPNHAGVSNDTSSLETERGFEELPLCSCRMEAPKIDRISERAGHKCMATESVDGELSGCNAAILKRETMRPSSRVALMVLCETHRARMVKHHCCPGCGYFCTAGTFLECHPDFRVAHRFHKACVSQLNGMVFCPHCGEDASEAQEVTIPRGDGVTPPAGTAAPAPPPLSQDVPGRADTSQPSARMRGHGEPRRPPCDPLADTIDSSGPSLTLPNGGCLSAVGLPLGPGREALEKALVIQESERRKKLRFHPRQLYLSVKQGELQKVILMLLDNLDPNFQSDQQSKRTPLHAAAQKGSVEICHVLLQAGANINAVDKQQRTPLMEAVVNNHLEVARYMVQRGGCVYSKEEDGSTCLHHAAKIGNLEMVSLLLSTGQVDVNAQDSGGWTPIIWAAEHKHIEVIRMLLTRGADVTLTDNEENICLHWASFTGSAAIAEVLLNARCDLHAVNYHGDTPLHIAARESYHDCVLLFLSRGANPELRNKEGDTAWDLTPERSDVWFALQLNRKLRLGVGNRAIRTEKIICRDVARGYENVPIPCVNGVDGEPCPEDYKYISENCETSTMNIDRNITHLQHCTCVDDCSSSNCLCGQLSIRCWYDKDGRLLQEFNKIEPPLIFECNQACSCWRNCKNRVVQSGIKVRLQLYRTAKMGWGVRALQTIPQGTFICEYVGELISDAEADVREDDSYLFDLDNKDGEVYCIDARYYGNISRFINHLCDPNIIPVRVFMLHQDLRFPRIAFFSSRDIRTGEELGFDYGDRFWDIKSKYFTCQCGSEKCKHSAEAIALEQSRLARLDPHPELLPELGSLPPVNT
Form field: IC50 (one value per entry).

Guide cases for IC50, answers given:
{"compound": "CNc1ccnc(Nc2ccc(OC)c(OCCCN3CC(OC)C3)c2)n1", "target.entity": "EHMT2 (Homo sapiens, UniProt Q96KQ7)", "readout.label": "IC50", "recorded.measurement": "1 to 10 µM"}
{"compound": "CNc1nc(Nc2ccc(OC)c(OCCCN3CCCC3)c2)nc2c1CCC2", "target.entity": "EHMT2 (Homo sapiens, UniProt Q96KQ7)", "readout.label": "IC50", "recorded.measurement": "1 to 10 µM"}
{"compound": "CNc1ccnc(Nc2ccc(OC)c(OCCC3CCCN3C)c2)n1 (centres unmarked)", "target.entity": "EHMT2 (Homo sapiens, UniProt Q96KQ7)", "readout.label": "IC50", "recorded.measurement": "1 to 10 µM"}
{"compound": "CNc1cc(Nc2cc(OCCCN3CCCC3)c(OC)cn2)nc(C)c1F", "target.entity": "EHMT2 (Homo sapiens, UniProt Q96KQ7)", "readout.label": "IC50", "recorded.measurement": "0.1 to 1 µM"}

Ask | May I ask what IC50 has been recorded for CNc1nc(Nc2ccc(OC)c(OCCCN3CCCC3)c2)ncc1C#N ?
Reply | > 10 µM

Ask | May I ask what IC50 has been recorded for CNc1cc(OC)nc(Nc2ccc(OC)c(OCCCN3CCCC3)c2)n1 ?
Reply | > 10 µM

Ask | May I ask what IC50 has been recorded for CCc1cc(NC)nc(Nc2ccc(OC)c(OCCCN3CCCC3)c2)n1 ?
Reply | 0.1 to 1 µM

Ask | May I ask what IC50 has been recorded for CNc1cc(Nc2cc(OCCCN3CCCC3)c(OC)cn2)cc(C)n1 ?
Reply | 1 to 10 µM

Ask | May I ask what IC50 has been recorded for COc1cnc(Nc2nc(C)cc3[nH]ccc23)cc1OCCCN1CCCC1 ?
Reply | > 10 µM

Ask | May I ask what IC50 has been recorded for CNc1nc(Nc2ccc(OC)c(OCCCN3CCCC3)c2)nc(C)c1F ?
Reply | 0.1 to 1 µM

Ask | May I ask what IC50 has been recorded for COc1ccc(Nc2nccc(-n3nc(C)cc3C)n2)cc1OCCCN1CCCC1 ?
Reply | > 10 µM
